target: recombinant delta opiod receptor expressed in CHO-K1 cells (Homo sapiens, UniProt P41143); test: biochemical; details: 0.2 nM [3H]-naltrindole, Table 1; read-out: Delta-Receptor Binding Affinity Ki
Sequence (P41143 whole entry): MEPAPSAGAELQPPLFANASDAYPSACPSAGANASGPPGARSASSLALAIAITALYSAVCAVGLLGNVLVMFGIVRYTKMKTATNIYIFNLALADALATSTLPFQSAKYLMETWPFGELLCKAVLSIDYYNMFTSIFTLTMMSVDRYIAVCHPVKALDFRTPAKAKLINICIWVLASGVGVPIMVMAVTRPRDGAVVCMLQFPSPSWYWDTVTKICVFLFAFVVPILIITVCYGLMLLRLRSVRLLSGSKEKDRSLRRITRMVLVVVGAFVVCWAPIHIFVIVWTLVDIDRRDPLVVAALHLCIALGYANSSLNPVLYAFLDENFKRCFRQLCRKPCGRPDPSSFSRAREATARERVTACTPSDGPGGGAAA
Measured Ki of individual entries
MEASURED METRIC: Ki

{"COMPOUND": "CN1CCC23c4c5ccc(O)c4O[C@H]2[C@H](OC2OC(CO)C(O)C(O)C2O)CCC3C1C5 (some centres unmarked) [Dihydroisomorphine-6-glucoside, 6-O-Glucosyldihydroisomorphine]", "MEASURED METRIC": "Ki", "ASSAY RESULT": "868 nM"}
{"COMPOUND": "CN1CC[C@]23c4c5ccc(OC6O[C@H](CO)[C@@H](O)[C@H](O)[C@H]6O)c4O[C@H]2C(=O)CC[C@H]3[C@H]1C5 (some centres unmarked) [Hydromorphone-3-glucoside, 3-O-Glucosylhydromorphone]", "MEASURED METRIC": "Ki", "ASSAY RESULT": "4500 nM"}
